All values here come from ChEMBL document CHEMBL2218924.

Target: RAC-gamma serine/threonine-protein kinase (Homo sapiens)
Settings: at 10 µM
What residual activity was measured for each of the following?

Observed residual activity on RAC-gamma serine/threonine-protein kinase (Homo sapiens) for O=C(Nc1cccc(Nc2nccc(Nc3cccc(C(F)(F)F)c3)n2)c1)C1CC1 , please. 67%

And for Oc1n[nH]c2nnc(-c3c(-c4ccccc4)nn4ccccc34)cc12 ? 84%

And for COc1ccc(CNc2nc(N(CCO)CCO)nc3c2ncn3C(C)C)cc1 ? 69%

And for O=[N+]([O-])c1ccc(-c2nc(-c3ccc(F)cc3)c(-c3ccncc3)[nH]2)cc1 ? 75%

And for O=C(Nc1cccc(Nc2cc(Nc3cccc(C(F)(F)F)c3)ncn2)c1)C1CC1 ? 96%
